Source of measurements: ChEMBL document CHEMBL1133231

Ki, Sodium-dependent serotonin transporter (Rattus norvegicus, UniProt P31652), per-entry values.
Give bare numbers, in nM.

The cases that follow already have their Ki on record.
>  <smi>
O=[N+]([O-])c1cc([N+](=O)[O-])c2nc(N3CCNCC3)ccc2c1

>  <recorded result>
313

$$$$
>  <smi>
c1ccc2nc(N3CCNCC3)ccc2c1

>  <recorded result>
63

$$$$

As a next step, examine the compound that follows.
Give the measured Ki of "NCCNc1ccc2cc([N+](=O)[O-])ccc2n1" .
164
